TARGET_OR_TEST_SYSTEM: T1, human CD11a (human, UniProt P20701 26-1170)
T1 construct: whole, on cells; On Jurkat T-cells or human peripheral blood mononuclear cells, as part of LFA-1; also called CD11a on Jurkat cells; alpha subunit of LFA-1
T1 sequence (P20701 26-1170): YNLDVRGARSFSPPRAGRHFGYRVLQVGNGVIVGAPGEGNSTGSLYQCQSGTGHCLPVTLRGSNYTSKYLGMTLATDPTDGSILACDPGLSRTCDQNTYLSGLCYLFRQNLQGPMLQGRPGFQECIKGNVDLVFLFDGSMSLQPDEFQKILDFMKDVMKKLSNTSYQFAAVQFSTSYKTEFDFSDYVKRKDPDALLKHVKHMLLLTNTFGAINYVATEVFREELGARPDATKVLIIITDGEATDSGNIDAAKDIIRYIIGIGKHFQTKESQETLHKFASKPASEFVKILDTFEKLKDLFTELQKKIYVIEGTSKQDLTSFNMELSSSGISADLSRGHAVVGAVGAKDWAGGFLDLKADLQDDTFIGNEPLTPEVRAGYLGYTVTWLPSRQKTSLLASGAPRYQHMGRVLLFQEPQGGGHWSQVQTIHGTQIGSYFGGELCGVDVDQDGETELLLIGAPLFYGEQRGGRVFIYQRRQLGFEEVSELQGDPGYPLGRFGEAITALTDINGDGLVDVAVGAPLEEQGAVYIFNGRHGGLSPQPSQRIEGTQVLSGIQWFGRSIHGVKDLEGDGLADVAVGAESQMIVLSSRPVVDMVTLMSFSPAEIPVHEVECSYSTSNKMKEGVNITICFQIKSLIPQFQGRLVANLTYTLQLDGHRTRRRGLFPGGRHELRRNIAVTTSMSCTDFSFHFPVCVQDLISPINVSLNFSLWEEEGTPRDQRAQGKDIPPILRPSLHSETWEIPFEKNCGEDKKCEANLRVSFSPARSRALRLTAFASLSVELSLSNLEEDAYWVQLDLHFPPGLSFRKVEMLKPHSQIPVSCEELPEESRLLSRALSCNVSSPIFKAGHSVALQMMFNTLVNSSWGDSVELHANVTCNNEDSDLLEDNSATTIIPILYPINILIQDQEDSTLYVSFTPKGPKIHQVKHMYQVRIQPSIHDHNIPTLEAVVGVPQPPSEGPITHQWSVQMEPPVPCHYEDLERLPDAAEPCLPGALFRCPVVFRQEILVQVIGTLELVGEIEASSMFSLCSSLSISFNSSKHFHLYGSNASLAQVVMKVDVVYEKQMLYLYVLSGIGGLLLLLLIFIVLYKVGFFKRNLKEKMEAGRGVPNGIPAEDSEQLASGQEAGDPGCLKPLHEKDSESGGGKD
TEST_DETAILS: FACScan, Jurkat cells
MEASURE_NAME: EC50 F(ab)/EC50 F(ab)-2

1. humanized MHM24 F(ab)-5 (Fab, V domains shown, F(ab) from E. coli) VH: EVQLVESGGGLVQPGGSLRLSCAASGFSFTGHWMNWVRQAPGKGLEWVGMIHPSDSETRYNQKFKDRFTISVDKSSSTLYLQMNSLRAEDTAVYYCARGIYFYGTTYFDYWGQGTLVTVSS VL: DIQMTQSPSSLSASVGDRVTITCRASKTISKYLAWYQQKPGKAPKLLIYSGSSLESGVPSRFSGSGSGTDFTLTISSLQPEDFATYYCQQHNEYPLTFGQGTKVEIK = 0.043 ratio
2. humanized MHM24 F(ab)-2 (Fab, V domains shown, F(ab) from E. coli) VH: EVQLVESGGGLVQPGGSLRLSCAASGFSFTGHWMNWVRQAPGKGLEWVGMIHPSDSETRYNQKFKDRFTISVDNSKNTLYLQMNSLRAEDTAVYYCARGIYFYGTTYFDYWGQGTLVTVSS VL: DIQMTQSPSSLSASVGDRVTITCRASKTISKYLAWYQQKPGKAPKLLIYSGSSLESGVPSRFSGSGSGTDFTLTISSLQPEDFATYYCQQHNEYPLTFGQGTKVEIK = 1 ratio
3. chimeric MHM24 IgG1 (antibody, V domains shown, Murine VL and VH fused to human constant light and heavy (IgG1) chains; also called chIgG1; chimeric IgG1) VH: EVQLQQPGAELMRPGASVKLSCKASGYSFTGHWMNWVRQRPGQGLEWIGMIHPSDSETRLNQKFKDKATLTVDKSSSSAYMQLSSPTSEDSAVYYCARGIYFYGTTYFDYWGQGTTLTVSS VL: DVQITQSPSYLAASPGETISINCRASKTISKYLAWYQEKPGKTNKLLIYSGSTLQSGIPSRFSGSGSGTDFTLTISSLEPEDFAMYYCQQHNEYPLTFGTGTKLELKR = 0.006 ratio
4. humanized MHM24 F(ab)-4 (Fab, V domains shown, F(ab) from E. coli; F(ab)-2 plus ValH71Arg) VH: EVQLVESGGGLVQPGGSLRLSCAASGFSFTGHWMNWVRQAPGKGLEWVGMIHPSDSETRYNQKFKDRFTISRDNSKNTLYLQMNSLRAEDTAVYYCARGIYFYGTTYFDYWGQGTLVTVSS VL: DIQMTQSPSSLSASVGDRVTITCRASKTISKYLAWYQQKPGKAPKLLIYSGSSLESGVPSRFSGSGSGTDFTLTISSLQPEDFATYYCQQHNEYPLTFGQGTKVEIK = 2.9 ratio
5. humanized MHM24 F(ab)-3 (Fab, V domains shown, F(ab) from E. coli; F(ab)-2 plus PheH67Ala) VH: EVQLVESGGGLVQPGGSLRLSCAASGFSFTGHWMNWVRQAPGKGLEWVGMIHPSDSETRYNQKFKDRATISVDNSKNTLYLQMNSLRAEDTAVYYCARGIYFYGTTYFDYWGQGTLVTVSS VL: DIQMTQSPSSLSASVGDRVTITCRASKTISKYLAWYQQKPGKAPKLLIYSGSSLESGVPSRFSGSGSGTDFTLTISSLQPEDFATYYCQQHNEYPLTFGQGTKVEIK = 1.2 ratio
6. humanized MHM24 F(ab)-8 (Fab, V domains shown, F(ab) from E. coli with human kappa CL and CH1) VH: EVQLVESGGGLVQPGGSLRLSCAASGYSFTGHWMNWVRQAPGKGLEWVGMIHPSDSETRYNQKFKDRFTISVDKSKNTLYLQMNSLRAEDTAVYYCARGIYFYGTTYFDYWGQGTLVTVSS VL: DIQMTQSPSSLSASVGDRVTITCRASKTISKYLAWYQQKPGKAPKLLIYSGSTLQSGVPSRFSGSGSGTDFTLTISSLQPEDFATYYCQQHNEYPLTFGQGTKVEIKR = 0.004 ratio
